From: the supplement of paper PMC10126150

Kindly supply the reported switch fluorescence ratio values for the records listed here.
# System: ATP;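 further: ATP exposure 15 min at 22 °C before imaging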
# METHOD_DESCRIPTION: switch fluorescence ratio, 500 uM ATP over buffer (Cy3 cluster intensity, sum of 5 cycles each) (fold (ratio)); higher = stronger signal-on switching upon ATP binding; sequences stand for … in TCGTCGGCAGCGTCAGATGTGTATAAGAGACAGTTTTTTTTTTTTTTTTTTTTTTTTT…TC
# CONDITION: aptamer strand: ATP DNA aptamer (quencher-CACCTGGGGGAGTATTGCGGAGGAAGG + anchor), 100 nM annealed; ATP concentration: 500 uM
Give bare numbers.

Here's what some known entries look like.
TGGGGCGACG = 0.994
GGCACTATAA = 1.03

Dear colleague, could you send me switch fluorescence ratio for each of the items below? Thanks.
1. AGAGGGCATG
2. TTCCGGAGGG
3. GCATTTGGTT

Marked response:
0.987
1.02
1.01

====

# Tested on: ATP;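 further: ATP exposure 15 min at 22 °C before imaging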
# METHOD_DESCRIPTION: switch fluorescence ratio, 500 uM ATP over buffer (Cy3 cluster intensity, sum of 5 cycles each) (fold (ratio)); higher = stronger signal-on switching upon ATP binding; sequences stand for … in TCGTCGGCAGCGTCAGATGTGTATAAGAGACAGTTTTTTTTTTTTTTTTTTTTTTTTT…TC
# CONDITION: aptamer strand: ATP DNA aptamer (quencher-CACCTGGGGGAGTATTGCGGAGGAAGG + anchor), 100 nM annealed; ATP concentration: 500 uM
Kindly supply the reported switch fluorescence ratio values for the records listed here.

Here's what some known entries look like.
GGCCTAGGGA = 1.01
ATTTTGTGTT = 0.988
AAACAGTTAT = 1.03
TAATGAATAG = 1.01
TTGAAAATGA = 0.979
TTCGGGGCTT = 0.983

Dear colleague, could you send me switch fluorescence ratio for each of the items below? Thanks.
1. ATGTTTATGG
2. TGTTGTTTTG
3. TTTAGGTTGG
4. TGCTCCTTCT
5. GGGGGAATAA
6. GACGATGCCA
7. ACAAGTGGAC

Marked response:
1. 0.987
2. 1
3. 0.994
4. 1.09
5. 1.54
6. 1.16
7. 1.03

Dear colleague, could you send me switch fluorescence ratio for each of the items below? Thanks.
1. GGCGAGGGGC
2. AAGACTAGTT
3. TTTATGAATT
4. TAACAGTGGG
5. TTAAGGACGG

Marked response:
1: 1.01; 2: 0.999; 3: 1.03; 4: 1.02; 5: 0.994

====

# Tested on: ATP;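 further: ATP exposure 15 min at 22 °C before imaging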
# METHOD_DESCRIPTION: switch fluorescence ratio, 500 uM ATP over buffer (Cy3 cluster intensity, sum of 5 cycles each) (fold (ratio)); higher = stronger signal-on switching upon ATP binding; sequences stand for … in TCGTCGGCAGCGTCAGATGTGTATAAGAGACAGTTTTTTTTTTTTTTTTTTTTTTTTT…TC
# CONDITION: aptamer strand: ATP DNA aptamer (quencher-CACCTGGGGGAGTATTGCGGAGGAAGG + anchor), 100 nM annealed; ATP concentration: 500 uM
# label = Y if switch fluorescence ratio >= 1 else N

Illustrative cases are given below, each with its answer.
CATAGATGGA = Y
GCGCATTTAG = Y
ATACTTCATT = Y

Exam item: Entry TGAGTTATCG : is its switch fluorescence ratio no less than 1?
Marked response: N
